Target: c-Myc protein (Homo sapiens, UniProt P01106)
Construct: endogenous in cells; host or cells: HL60 cells
Sequence (P01106 whole entry): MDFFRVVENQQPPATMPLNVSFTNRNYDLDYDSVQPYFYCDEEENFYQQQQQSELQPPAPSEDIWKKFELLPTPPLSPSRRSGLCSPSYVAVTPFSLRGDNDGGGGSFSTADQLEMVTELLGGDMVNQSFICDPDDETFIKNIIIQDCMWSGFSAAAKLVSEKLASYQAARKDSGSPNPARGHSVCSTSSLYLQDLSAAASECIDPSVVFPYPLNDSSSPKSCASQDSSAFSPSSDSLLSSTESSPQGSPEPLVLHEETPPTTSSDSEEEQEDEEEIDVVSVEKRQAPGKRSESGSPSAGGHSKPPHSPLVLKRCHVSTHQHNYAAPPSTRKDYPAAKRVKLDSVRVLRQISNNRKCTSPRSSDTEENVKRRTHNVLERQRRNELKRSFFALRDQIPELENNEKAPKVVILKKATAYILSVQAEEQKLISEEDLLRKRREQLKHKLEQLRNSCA
Test: Ability of compounds to degrade c-Myc protein in HL60 cells (ELISA)
Type: cell-based
Conditions: HL-60, 1 μM compound, 24 h, read-out: HL60 cells Protein degradation rate (1 μM)
reported_metric: inhibition at 1 µM

input: State the measured inhibition at 1 µM (c-Myc protein (Homo sapiens, UniProt P01106)) of CN(CCn1c2ccccc2c2cccnc21)Cc1ccc(CNC(=O)c2ccc3c(c2)C(=O)N(C2CCC(=O)NC2=O)C3=O)cc1C(F)(F)F (centres unmarked)
output: 60 to 90%

input: Report inhibition at 1 µM under test system c-Myc protein (Homo sapiens, UniProt P01106) for CN(CCc1cccc2ccccc12)Cc1ccc(CNC(=O)c2ccc3c(c2)C(=O)N(C2CCC(=O)NC2=O)C3=O)cc1F (centres unmarked) .
output: 60 to 90%

input: Provide inhibition at 1 µM, system c-Myc protein (Homo sapiens, UniProt P01106), entry COc1cc(CN(C)CCn2c3ccccc3c3cccnc32)ccc1CNC(=O)c1ccc2c(c1)C(=O)N(C1CCC(=O)NC1=O)C2=O (centres unmarked)
output: 60 to 90%

input: Using c-Myc protein (Homo sapiens, UniProt P01106) as the test system, report measured inhibition at 1 µM of CN(Cc1ccc(CNC(=O)c2ccc3c(c2)C(=O)N(C2CCC(=O)NC2=O)C3=O)cc1)C(=O)Cn1c2ccccc2c2cccnc21 (centres unmarked) .
output: 60 to 90%

input: Report inhibition at 1 µM under test system c-Myc protein (Homo sapiens, UniProt P01106) for O=C(Cc1ccc(Cl)cc1)NCc1ccc(CNC(=O)c2ccc3c(c2)C(=O)N(C2CCC(=O)NC2=O)C3=O)cc1 (centres unmarked) .
output: 60 to 90%

input: Retrieve inhibition at 1 µM on c-Myc protein (Homo sapiens, UniProt P01106); query CN(Cc1ccc(CNC(=O)Cc2nccc3ccccc23)cc1)Cc1ccc2c(c1)C(=O)N(C1CCC(=O)NC1=O)C2=O (centres unmarked)
output: 30 to 60%

input: Please look at O=C(Cc1cccc2ccccc12)NCCCCCCCCNc1ccc2c(c1)C(=O)N(C1CCC(=O)NC1=O)C2=O (centres unmarked) and tell me its recorded inhibition at 1 µM on c-Myc protein (Homo sapiens, UniProt P01106).
output: 60 to 90%

input: Using c-Myc protein (Homo sapiens, UniProt P01106) as the test system, report measured inhibition at 1 µM of CC(C)(NC(=O)c1ccc2c(c1)C(=O)N(C1CCC(=O)NC1=O)C2=O)c1ccc(CNC(=O)Cc2cccc3ccccc23)cc1 (centres unmarked) .
output: 60 to 90%

input: Please look at O=C(Cn1c2ccccc2c2cccnc21)NCc1ccc(CNC(=O)c2ccc3c(c2)C(=O)N(C2CCC(=O)NC2=O)C3=O)cc1 (centres unmarked) and tell me its recorded inhibition at 1 µM on c-Myc protein (Homo sapiens, UniProt P01106).
output: 60 to 90%

input: Report measured inhibition at 1 µM on c-Myc protein (Homo sapiens, UniProt P01106); entry: O=C(Cc1cccc2ccccc12)NCc1ccc(CNC(=O)c2ccc3c(c2)C(=O)N(C2CCC(=O)NC2=O)C3=O)c(F)c1 (centres unmarked)
output: 60 to 90%

input: Check c-Myc protein (Homo sapiens, UniProt P01106) data and give inhibition at 1 µM for COc1cccc(CC(=O)NCc2ccc(CNC(=O)c3ccc4c(c3)C(=O)N(C3CCC(=O)NC3=O)C4=O)cc2)c1 (centres unmarked) .
output: 60 to 90%

input: Using c-Myc protein (Homo sapiens, UniProt P01106) as the test system, report measured inhibition at 1 µM of CN(CCn1c2ccccc2c2cccnc21)Cc1ccc(CC(=O)Nc2ccc3c(c2)C(=O)N(C2CCC(=O)NC2=O)C3=O)cc1 (centres unmarked) .
output: 60 to 90%

input: GET inhibition at 1 µM where system = c-Myc protein (Homo sapiens, UniProt P01106) and item = O=C(Cc1cccc2ccccc12)NC[C@H]1CC[C@H](CNc2ccc3c(c2)C(=O)N(C2CCC(=O)NC2=O)C3=O)CC1 (some centres unmarked)
output: 10 to 30%

input: Give inhibition at 1 µM only, for O=C(Cn1c2ccccc2c2cccnc21)NCc1ccc(CC(=O)Nc2ccc3c(c2)C(=O)N(C2CCC(=O)NC2=O)C3=O)cc1 (centres unmarked) , using c-Myc protein (Homo sapiens, UniProt P01106) data.
output: 60 to 90%
